Every entry's value here was drawn from the supplement of paper PMC7125110.

B1: glmS ribozyme (parent)
chain: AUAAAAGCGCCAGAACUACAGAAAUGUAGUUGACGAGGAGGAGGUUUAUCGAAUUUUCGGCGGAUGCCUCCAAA

Variants of: B1
Assay procedure: self-cleavage kobs at 2500 uM GlcN6P; higher = faster cleavage; RNA array
Applied conditions: with glucosamine-6-phosphate
This sample holds only a part of the variants without activity.
Some variants, each annotated with its measured self-cleavage kobs at 2500 uM GlcN6P.
Report only the number, with the unit s⁻¹ understood.

As a guide, the following entries are already answered.
Variant annotation	Measured result
A15G U30A G44U U45A	0.000178
C16G U55G	0.00148
U31G U45C	0.000406
C11U U54C C67A	0.00025

Q. Entry G40C U46C : reported self-cleavage kobs at 2500 uM GlcN6P = ?
A. 0.000729

Q. Entry G32U A52G : reported self-cleavage kobs at 2500 uM GlcN6P = ?
A. 3.86e-05

Q. Entry A15C G40A : reported self-cleavage kobs at 2500 uM GlcN6P = ?
A. 0.000365

Q. Entry U47A G59A : reported self-cleavage kobs at 2500 uM GlcN6P = ?
A. 3.14e-05

Q. Entry G66A U69G : reported self-cleavage kobs at 2500 uM GlcN6P = ?
A. 0.00012
